Attribution: patent US9073855B2

Biological target: GST-Bcl-XL (Homo sapiens, UniProt Q07817)
Sequence (Q07817 whole entry): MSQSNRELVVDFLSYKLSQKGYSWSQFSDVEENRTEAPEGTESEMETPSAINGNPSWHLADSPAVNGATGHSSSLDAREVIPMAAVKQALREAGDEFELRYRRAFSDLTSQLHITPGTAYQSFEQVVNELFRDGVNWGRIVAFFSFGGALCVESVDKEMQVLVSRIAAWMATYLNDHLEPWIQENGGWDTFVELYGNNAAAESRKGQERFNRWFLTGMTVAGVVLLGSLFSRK
Test: TR-FRET binding assay, GST-Bcl-XL with F-Bak peptide probe
Settings: TR-FRET Binding Affinity, GST-Bcl-XL, F-Bak peptide probe
Description: Tb-anti-GST antibody was purchased from Invitrogen (Catalog No. PV4216). […] The samples were then mixed on a shaker for 1 minute and incubated for an additional 3 hours at room temperature. […] Fluorescence was measured on the ENVISION plate reader (Perkin Elmer) using a 340/35 nm excitation filter and 520/525 (F-Bak peptide) and 495/510 nm (Tb-labeled […] antibody) emission filters. […]
Listed here: items and their measured pKi.
Just the number, please; pKi means minus log10 of the concentration in mol/L.

get_value(item= CN(C)CCCNc1ccc(S(=O)(=O)NC(=O)c2ccc(N3CCN(Cc4ccccc4-c4ccc(Cl)cc4)CC3)cc2Oc2ccc3ccccc3c2)cc1[N+](=O)[O-] [Example 166] , readout=pKi) returns 8.49

Entry under test: CC1(C)CCC(CN2CCN(c3ccc(C(=O)NS(=O)(=O)c4ccc(OC[C@H]5COCCO5)c([N+](=O)[O-])c4)c(Oc4ccc5[nH]ccc5c4)c3)CC2)=C(c2ccc(Cl)cc2)C1 [Example 346] . Its pKi was 6.69

# pKi (molecule: O=C(NS(=O)(=O)c1ccc(NCC2CCOCC2)c(S(=O)(=O)C(F)(F)F)c1)c1ccc(N2CCN(Cc3ccccc3-c3ccc(Cl)cc3)CC2)cc1Oc1ccc2ccccc2c1 [Example 37] ) is 7.35

Measured pKi, CN1CCN(Nc2ccc(S(=O)(=O)NC(=O)c3ccc(N4CCN(CC5=C(c6ccc(Cl)cc6)CC(C)(C)CC5)CC4)cc3Oc3ccc4[nH]ccc4c3)cc2[N+](=O)[O-])CC1 [Example 174] : 7.21

Kindly note the recorded pKi for CC1(C)CCC(CN2CCN(c3ccc(C(=O)NS(=O)(=O)c4ccc(NCCCN5CCCC5)c([N+](=O)[O-])c4)c(Oc4cccc5[nH]ccc45)c3)CC2)=C(c2ccc(F)cc2)C1 [Example 73] , which is 7.77

Recorded pKi (molecule O=C(NS(=O)(=O)c1ccc(NCCCN2CCOCC2)c([N+](=O)[O-])c1)c1ccc(N2CCN(Cc3ccccc3-c3ccc(Cl)cc3)CC2)cc1Oc1cccc2[nH]ccc12 [Example 58] ): 6.54

Recorded pKi (molecule CC1(C)CCC(CN2CCN(c3ccc(C(=O)NS(=O)(=O)c4cnc(OC[C@H]5CC[C@H](O)CC5)c(Cl)c4)c(Oc4cccc5[nH]ncc45)c3)CC2)=C(c2ccc(Cl)cc2)C1 [Example 421] ): 7.27

Item: O=C(NS(=O)(=O)c1ccc(NCC2CCOCC2)c([N+](=O)[O-])c1)c1ccc(N2CCN(Cc3ccccc3-c3ccc(Cl)cc3)CC2)cc1Oc1ccccc1 [Example 1] | pKi: 6.24

Per the record, CC(C)N(C)CCCNc1ccc(S(=O)(=O)NC(=O)c2ccc(N3CCN(Cc4ccccc4-c4ccc(Cl)cc4)CC3)cc2Oc2ccccc2)cc1[N+](=O)[O-] [Example 93] has pKi of 7.86

Just so you know, measured pKi for O=C(NS(=O)(=O)c1ccc(NCCCN2CCOCC2)c([N+](=O)[O-])c1)c1ccc(N2CCN(Cc3ccccc3-c3ccc(Cl)cc3)CC2)cc1Oc1ccc2ccccc2c1 [Example 36] came out at 8.05

Looking up CC1(C)CCC(CN2CCN(c3ccc(C(=O)NS(=O)(=O)c4ccc(NCCN5CCCC5=O)c([N+](=O)[O-])c4)c(Oc4ccc5[nH]ccc5c4)c3)CC2)=C(c2ccc(Cl)cc2)C1 [Example 251] , I see its pKi listed as 6.33

Entry CN1CCN(Nc2ccc(S(=O)(=O)NC(=O)c3ccc(N4CCN(CC5=C(c6ccc(Cl)cc6)CC(C)(C)CC5)CC4)cc3Oc3cccc4[nH]ccc34)cc2S(=O)(=O)C(F)(F)F)CC1 [Example 215] ; pKi = 7.22
